# procedure.details: Repeat once-weekly IV dose toxicokinetics in rats
# Type: in vivo
# reported.conditions: male, rat, in vivo, iv, 46.3 mg/kg, rats M, 46.3 mg/kg once-weekly IV, Day 13
readout.label: C0 (µg/mL)
Number in µg/mL, nothing else.

Query: So what does the record say about C0 for CC1(C)C(=CC=C2CCCC(C=CC3=[N+](CCCCS(=O)(=O)[O-])c4ccc(S(=O)(=O)O)cc4C3(C)C)=C2Oc2ccc(CC(NC(=O)c3ccc(NCc4cnc5nc(N)[nH]c(=O)c5n4)cc3)C(=O)O)cc2)N(CCCCS(=O)(=O)O)c2ccc(S(=O)(=O)O)cc21 (stereo not shown) ?
Response: 269
